meta.source: ChEMBL document CHEMBL1201862

System: NCI-H460
Assay: NCI tumour cell line growth inhibition, 48 h
Activity calls are given as the source filed them. No stated cut-off is given here; in the data, active = GI50 up to about 1.1 µM and inactive = higher.
Listed below: GI50 values for each entry.
measuredAttribute: GI50

>>> observed("COc1ccc(-c2c(C#N)c(N)n(C3OC(CO)C(O)C(O)C3O)c(=S)c2C#N)cc1 (stereo not given)")
"97.1 µM (inactive)"
>>> observed("O=C(CP(c1ccccc1)c1ccccc1)c1cccc(C(=O)CP(c2ccccc2)c2ccccc2)c1")
"19.7 µM (inactive)"
>>> observed("CCSC(SCC)=C1C(=O)N(c2ccccc2)N=C1C")
"16 µM (inactive)"
>>> observed("Cc1ccc(S(=O)(=O)OC[C@@H]2CO2)cc1")
"> 100 µM (inactive)"
>>> observed("CS(=O)(=O)c1ccc(NNc2cc(=O)[nH]c(=O)[nH]2)cc1")
"> 100 µM (inactive)"
>>> observed("CCOC(=O)c1nc2ccccc2nc1NCc1ccc(OC)cc1")
"82.8 µM (inactive)"
>>> observed("NC(=S)NNC(=O)/C(=C/c1ccc(/C=C(\\NC(=O)c2ccccc2)C(=O)NNC(N)=S)cc1)NC(=O)c1ccccc1")
"> 100 µM (inactive)"
>>> observed("CC1=C(C)C(=O)C2=C(OCCCO2)C1=O")
"> 10 µM (inactive)"
>>> observed("CN(C)CCNC(=O)c1cnn(C)c1[N+](=O)[O-]")
"77.4 µM (inactive)"
>>> observed("CC1=Nc2c(ccc3c2C(=O)c2ccccc2C3=O)NC(c2cccc3c2CCC3)C1 (stereo not given)")
"47.8 µM (inactive)"

---

System: Malme-3M
Test: NCI tumour cell line growth inhibition, 48 h
Calls of active or inactive are those of the source. Rule as the data show it: active = GI50 up to about 1.1 µM and inactive = higher. Where a SMILES comes first, the peptide text is derived from it. [ ]: non-standard residue; d: D form. The star is where a group is joined. Hyp = O=C(O)[CH]1C[CH](O)CN1; Cbz = O=C(OCc1ccccc1)*
measuredAttribute: GI50

>>> observed("Cc1ccc(C(=O)Nc2ccc(S(=O)(=O)O)c3cc(S(=O)(=O)O)cc(S(=O)(=O)O)c23)cc1NC(=O)c1cccc(N)c1")
"1.05 µM (active)"
>>> observed("Cc1nc(=O)[nH]c(NCCNCCO)c1C(=O)Nc1cccc2cc3ccccc3cc12")
"> 100 µM (inactive)"
>>> observed("NC(=O)CNC(=O)C1CC(O)CN1C(=O)C1CCCN1C(=O)OCc1ccccc1 (stereo not drawn) (Cbz-Pro-[Hyp]-Gly-NH2; configuration not given here)")
"> 100 µM (inactive)"
>>> observed("COC(=O)[C@@H]1C[C@H]2OC(=O)CC[C@]2(C)O[C@H]1[C@H]1O[C@@](C)(O)CCC[C@H]1C")
"> 50 µM (inactive)"
>>> observed("N/N=C(/C=C1\\C(=O)Nc2ccccc21)c1ccccc1")
"23.5 µM (inactive)"
>>> observed("COc1ccc(/C=C2\\N=C(SC)N(CN3CCCCC3)C2=O)cc1")
"> 100 µM (inactive)"
>>> observed("CC(=O)OCCCCn1nncc1Cn1ccc(=O)n(Cc2cnnn2CCCCOC(C)=O)c1=O")
"> 100 µM (inactive)"
>>> observed("CCN(CC)CCn1c2c3ccccc3ccc2c2oc(=O)c3ccccc3c21")
"> 100 µM (inactive)"
>>> observed("Cc1cc2nc(N)n[n+]([O-])c2cc1C")
"> 100 µM (inactive)"
>>> observed("CCNC1=C(NC(=O)CCl)C(=O)c2ccccc2C1=O")
"19.9 µM (inactive)"
>>> observed("COC(=O)C1OC(O[C@H]2CC[C@]3(C)[C@H]4CC=C5[C@@H]6CC(C)(C)CC[C@]6(C(=O)OC6OCC(O)C(O)C6OC6OC(C)C(OC7OCC(OC8OCC(O)C(O)C8O)C(O)C7O)C(O)C6O)[C@H](O)C[C@@]5(C)[C@]4(C)CC[C@H]3C2(C)C)C(O)C(O)C1O (stereo not given in full)")
"4.16 µM (inactive)"
>>> observed("CCN(CC)c1ccc2cc(C(=O)NCc3ccccc3)c(=N)oc2c1")
"15.2 µM (inactive)"
>>> observed("COc1ccc(N2C(=O)[C@H]3CC(C)c4c([nH]c5ccccc45)[C@H]3C2=O)cc1 (stereo not given in full)")
"2.11 µM (inactive)"
>>> observed("Cc1ccc2nc3[nH]nc(N)c3nc2c1")
"> 100 µM (inactive)"
>>> observed("CCN(CC)CCNC(=O)c1ccccc1NC(=O)C(=O)Nc1ccccc1C(=O)NCCN(CC)CC")
"21 µM (inactive)"
